The reader will find pIC50 measurements below, all made with Casein kinase II alpha/beta (Homo sapiens, UniProt P68400).
Sequence (P67870 whole entry): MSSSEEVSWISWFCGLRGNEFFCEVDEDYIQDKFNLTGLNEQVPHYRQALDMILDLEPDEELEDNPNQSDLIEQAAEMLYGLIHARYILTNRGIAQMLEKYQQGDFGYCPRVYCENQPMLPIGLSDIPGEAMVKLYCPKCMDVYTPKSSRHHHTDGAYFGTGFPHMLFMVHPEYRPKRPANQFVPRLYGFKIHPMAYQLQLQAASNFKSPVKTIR
Sequence (P68400 whole entry): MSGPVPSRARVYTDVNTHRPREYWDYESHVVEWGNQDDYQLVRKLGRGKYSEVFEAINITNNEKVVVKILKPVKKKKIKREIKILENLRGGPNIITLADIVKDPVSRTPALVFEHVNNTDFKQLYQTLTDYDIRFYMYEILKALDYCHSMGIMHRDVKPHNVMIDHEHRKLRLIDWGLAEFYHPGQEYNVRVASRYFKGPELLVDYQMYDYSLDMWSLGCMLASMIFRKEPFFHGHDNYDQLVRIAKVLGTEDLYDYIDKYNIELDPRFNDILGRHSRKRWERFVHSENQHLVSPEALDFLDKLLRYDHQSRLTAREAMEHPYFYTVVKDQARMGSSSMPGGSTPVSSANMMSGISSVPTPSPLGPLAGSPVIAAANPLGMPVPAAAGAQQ
Scale note: pIC50 = -log10(concentration in M).

Specify pIC50 for CCCCCCCCCCCC1=C(O)C(=O)C2=C(OC(N)=C(C#N)C2c2ccc(OC)cc2)C1=O (configuration not stated) and stop.
6.08

Given the compound CCCCCCCCCCCC1=C(O)C(=O)C2=C(OC(N)=C(C#N)C2c2ccc(Cl)cc2)C1=O (configuration not stated) , write its reported pIC50.
6.05

Using known records, supply pIC50 for CCCCCCCCC1=C(O)C(=O)C2=C(OC(N)=C(C#N)C2c2ccc([N+](=O)[O-])cc2)C1=O (configuration not stated)
5.70

Give the reported pIC50 for this compound. CCCCCCCCCCCC1=C(O)C(=O)C2=C(OC(N)=C(C#N)C2c2ccccc2)C1=O (configuration not stated)
6.24

State its pIC50: CCCCCCCCCCCC1=C(O)C(=O)C2=C(OC(N)=C(C#N)C2CCCCCC)C1=O (configuration not stated)
5.43

Quick one: give measured pIC50 for CCCCCCCCCCCC1=C(O)C(=O)C2=C(OC(N)=C(C#N)C2c2cccnc2)C1=O (configuration not stated)
5.86

Report pIC50, nothing else, for this compound: CCCCCCCCCCCC1=C(O)C(=O)C2=C(OC(N)=C(C#N)C2c2ccco2)C1=O (configuration not stated)
6.14

###

- testedTarget: Casein kinase II alpha/beta (Homo sapiens)
- procedureDetails: ATP-competitive inhibition of human CK2-alpha/beta expressed in Escherichia coli BL21(DE3) using RRRDDDSDDD peptide as substrate after 15 mins in presence of varying levels of ATP by capillary electrophoresis method
measureName: Ki (nM)
Give your result in nM as a bare value.

Give Ki for the following compound: CCCCCCCCCCCC1=C(O)C(=O)C2=C(OC(N)=C(C#N)C2c2ccccc2)C1=O (stereo unspecified)
390
